System: Puccinia triticina
Assay: Wheat brown rust (PUCCRT) disease control on wheat seedlings
Format: in vivo
Details: low volume application, 125.1 g/H, 3 Day Curative
PARAMETER MEASURED: PUCCRT 3DC, LV activity at 125.1 g/H (% Control rating)

COc1ccnc(C(=O)N[C@@H](C)C(=O)O[C@@H](C)[C@H](Oc2cccc(Cl)c2)C(C)C)c1OCOC(=O)C(C)C | A (> 80)
COc1ccnc(C(=O)NC(C)C(=O)OC(C)COCC2CC2)c1OCOC(=O)C(C)C (stereo not shown) | D
COc1ccnc(C(=O)N[C@@H](C)C(=O)O[C@@H](C)[C@H](OC(=O)C(C)C)C(C)C)c1OCOC(C)=O | A (> 80)
CC[C@@H](CCOC)[C@@H](Oc1ccccc1)[C@H](C)OC(=O)[C@H](C)NC(=O)c1nccc(OC)c1OC(C)=O | A (> 80)
COc1ccnc(C(=O)N[C@@H](C)C(=O)O[C@@H](C)[C@@H](Oc2ccccc2)C(C)C)c1OCOC(C)=O | A (> 80)

Now, please, on to the next compound.
# assay system Puccinia triticina: give PUCCRT 3DC, LV activity at 125.1 g/H (% Control rating) of `C=CC[C@@H](OCc1ccccc1)[C@H](C)OC(=O)[C@H](C)NC(=O)c1nccc(OC)c1OCOC(=O)COCC`
A (> 80)
